These measurements were taken from patent US20020064847A1.

Task for the reader: assign each of the following compounds its reported Relative activity.
- Tested on: secondary alcohol dehydrogenase
- Experiment: Substrate specificity, oxidation reaction
- Format: biochemical, Geotrichum candidum IFO 4601
- Study conditions: substrate 100 mM, coenzyme NAD+, (S)-1,3-butanediol-oxidizing activity = 100
Provide the reading as a plain figure in %.

Could you share which Relative activity value was measured for CC(C)O [2-propanol] ?
96.8

Could you share which Relative activity value was measured for CO [methanol] ?
60.8

Could you share which Relative activity value was measured for C=CCO [allyl alcohol] ?
18.7

Could you share which Relative activity value was measured for CCO [ethanol] ?
10.7

###

Task for the reader: assign each of the following compounds its reported Residual activity.
- System: secondary alcohol dehydrogenase
- Experiment: Behavior of the secondary alcohol dehydrogenase to inhibitors (residual activity)
- Format: biochemical, Geotrichum candidum IFO 4601
- Study conditions: inhibitor 1.0 mM; 30° C. for 10 minutes

Could you share which Residual activity value was measured for [Cl][Hg][Cl] [mercuric chloride] ?
0.0%

Could you share which Residual activity value was measured for O=C(O)CN(CCN(CC(=O)O)CC(=O)O)CC(=O)O ?
63.5%

Could you share which Residual activity value was measured for O=S(=O)([O-])[O-].[Cu+2] [copper sulfate] ?
71.5%

Could you share which Residual activity value was measured for NC(=O)CI [iodoacetamide] ?
2.4%

Could you share which Residual activity value was measured for O[C@H](CS)[C@H](O)CS (racemic) ?
42.9%

Could you share which Residual activity value was measured for [Cl][Co][Cl] [cobalt chloride] ?
81.0%

###

- System: secondary alcohol dehydrogenase
- Experiment: Behavior of the secondary alcohol dehydrogenase to inhibitors (residual activity)
- Format: biochemical, Geotrichum candidum IFO 4601
Readout name: Inhibition of the enzyme (in words)

OCCS = markedly inhibited
[Cl-].[Cl-].[Zn+2] [zinc chloride] = markedly inhibited
[Cl][Hg][Cl] [mercuric chloride] = markedly inhibited
